compounds and their reported LC retention time
assay: RP, Waters CORTECS T3, 100 × 2.1 mm, 2.7 µm, 0.2 mL/min, estimated dead time 1.1 min; A: water + 0.1% formic acid, pH 3; B: methanol + 0.1% formic acid, pH 3; gradient (min/%B) 0/0 1/0 6/5 30/100 35/100 35.1/0 40/0; conditions: stereoisomer not certain
Your answer is read as min, so omit the unit and give the number.

Record excerpt, results attached:
* CCCCCCCCCC(=O)OCC(COP(=O)([O-])OCC[N+](C)(C)C)OC(=O)CCCCCCCCC (configuration not stated) | 29.8
* NC(=O)Cc1c[nH]c2ccccc12 [INDOLE-3-ACETAMIDE] | 13
* C[N+](C)(C)CCOP(=O)(O)OP(=O)([O-])OCC1OC(n2ccc(N)nc2=O)C(O)C1O (configuration not stated) | 1.34
* Nc1ncnc2c1ncn2C1CC(O)C(COP(=O)(O)O)O1 (configuration not stated) | 1.34
* O=c1[nH]c(=O)c2[nH]cnc2[nH]1 | 3.29
* CC12CCC(=O)C=C1CCC1C2C(=O)CC2(C)C1CCC2(O)C(=O)CO (configuration not stated) | 20.2

Shifting focus to the compound that follows.
Exam item: Would you kindly share the measured LC retention time for CCCCCCCCCCCC(=O)OC(CC(=O)[O-])C[N+](C)(C)C (configuration not stated) ?
Marked response: 24.7

Data credit: the RepoRT retention time repository (doi:10.1016/j.jchromb.2020.122105)
